- MEASURED_TARGET: T1, recombinant Q586B2 protein (Trypanosoma brucei brucei)
- T1 chain: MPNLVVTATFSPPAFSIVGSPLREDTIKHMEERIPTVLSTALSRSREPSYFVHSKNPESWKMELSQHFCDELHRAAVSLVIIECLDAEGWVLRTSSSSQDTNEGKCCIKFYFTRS
OUTCOME_MEASURE: binding result

[[record]]
binder = "Nb36 (VHH) VHH: QVQLQESGGGLVQPGGSLRLSCAASGFAFSFYWMNWVRQAPGKGLEWVSAINSGGGSTYYADSVKGRFTISRDNAKNTLYLQMNSLKPEDTAVYYCAKGIVQRGEYYGMDYWGKGTQVTVSS"
recorded_result = "binds"

[[record]]
binder = "Nb41 (VHH) VHH: QVQLQESGGGLVQAGGSLRLSCAASGRTFSSYAMGWFRQAPGKEREFIALISWIGGSTAYADSVKGRFTISRDNAKNTLYLQMNSLKPEDTAVYYCATDRIGRHRGPGTQVTVSS"
recorded_result = "binds"


Every entry's value here was drawn from paper PMC10899635.
